// reported GI50 for each item listed
# System: DMS-114
# TEST PROTOCOL: NCI tumour cell line growth inhibition, 48 h
Calls of active or inactive are those of the source. Rule as the data show it: active = GI50 up to about 1.1 µM and inactive = higher.

MOLECULE	GI50
CCN(CC)CCCC(C)Nc1c2cc(OC)cc(C)c2nc2c(C)c(Cl)ccc12 (centres undefined)	1.93 µM (inactive)
O=NN(CCCl)C(=O)NC1CCC(CC2CCC(NC(=O)N(CCCl)N=O)CC2)CC1 (centres undefined)	24.4 µM (inactive)
O=C1CC(c2ccccc2)NCN1 (centres undefined)	> 100 µM (inactive)
CC1=C2C(O)C(C(C)CO)C(O)CC2(C)C(O)CC1 (centres undefined)	> 100 µM (inactive)
O=c1[nH]c(=O)n(C2OC(CO)C(O)C2O)cc1/N=N/NCc1ccccc1 (centres undefined)	> 66.5 µM (inactive)
O=[N+]([O-])[C@@H]1C2C=CC(C2)[C@H]1Cl (some centres undefined)	> 100 µM (inactive)
O=C1[C@H](Cl)[C@H]2c3cc4ccccc4nc3Oc3ccccc3N12	20.9 µM (inactive)
O=C(O)c1c(-c2cccc3ccccc23)sc(-c2cccc3ccccc23)c1C(=O)O	> 100 µM (inactive)
COc1ccc(/C(=N\NC(=O)NN)C(c2ccc(OC)cc2)C2(O)C(=O)Nc3c(Cl)cc(Cl)cc32)cc1 (centres undefined)	90.8 µM (inactive)
CCOC1=C2C(=O)OC(=O)C2C2CCCCC2=C1 (centres undefined)	> 100 µM (inactive)
N=C(N)NCCCC(NCc1c2ccccc2[n+]([O-])c2ccccc12)C(=O)O (centres undefined)	26.4 µM (inactive)
CC(C)c1ccc(O)c(=O)cc1 [GAMMA-THUJAPLICIN]	2.92 µM (inactive)
C/C=C/CP(=O)(c1ccccc1)c1ccccc1	> 100 µM (inactive)
CCOC(=O)C12CC1(C(=O)OCC)C1CCC2C1 (centres undefined)	74.3 µM (inactive)
